The measurements presented in this section are drawn from PubChem BioAssay (NCI).

Test system: SNB-75 CNS
Experiment: NCI tumour cell line growth inhibition, 384-well format
# reported TGI; entries follow

Per the records, this compound ( `COc1ccc(-c2nc(N3CCOCC3)c3sc(CN(C)c4ncc(C(=O)NO)cn4)cc3n2)cn1` ) has TGI equal to 0.0226 µM

Measured TGI of `CS(=O)(=O)c1ccc(Oc2cc(F)cc(C#N)c2)c2c1[C@H](O)C(F)(F)C2` : > 100 µM

Entry OCC1OC(n2cnc3c2NC=NC[C@H]3O)CC1O (some centres undefined) — recorded TGI = > 100 µM

For the next question, use this compound.
TGI in this record for `CC(C)n1c(=O)n(C)c2cnc3cc(F)c(-c4ccc(OCCCN5CCCCC5)nc4)cc3c21` : > 100 µM
